Target: CDK6/cycD3 (Homo sapiens, UniProt Q00534)
Sequence (Q00534 whole entry): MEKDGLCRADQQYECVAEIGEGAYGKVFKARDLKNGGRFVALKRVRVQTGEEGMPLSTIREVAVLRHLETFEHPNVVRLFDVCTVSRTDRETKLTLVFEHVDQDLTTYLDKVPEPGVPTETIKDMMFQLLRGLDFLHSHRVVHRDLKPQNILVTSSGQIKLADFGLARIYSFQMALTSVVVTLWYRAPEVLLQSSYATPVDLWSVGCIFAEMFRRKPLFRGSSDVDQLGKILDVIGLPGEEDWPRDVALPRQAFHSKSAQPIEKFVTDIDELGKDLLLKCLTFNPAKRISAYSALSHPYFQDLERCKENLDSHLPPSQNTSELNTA
Sequence (P30281 whole entry partner): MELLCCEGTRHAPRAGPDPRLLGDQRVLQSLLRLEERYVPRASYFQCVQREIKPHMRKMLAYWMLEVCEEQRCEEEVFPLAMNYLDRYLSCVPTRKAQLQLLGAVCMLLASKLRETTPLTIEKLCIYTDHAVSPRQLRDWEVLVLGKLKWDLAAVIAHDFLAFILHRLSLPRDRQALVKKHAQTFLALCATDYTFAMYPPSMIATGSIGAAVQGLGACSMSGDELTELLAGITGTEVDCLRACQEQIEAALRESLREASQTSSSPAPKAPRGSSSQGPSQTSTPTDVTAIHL
Assay: CDK6 kinase activity inhibition assay (caliper mobility shift)
Details: CDK6/cycD3 15 nM, ATP 800 μM; read-out: CDK6 kinase inhibitory activity (IC50)
Attribute Measured: IC50

Compound: CC(=O)c1c(C)c2cnc(Nc3ccc4c(c3)OC[C@@H]3CN(C5CCOCC5)CCN43)nc2n(C2CCCC2)c1=O
Attribute Measured: IC50
Val: < 20 nM
--
Compound: CC(=O)c1c(C)c2cnc(Nc3ccc4c(c3)OC[C@@H]3CN(C5CCN(C6CC6)CC5)CCN43)nc2n(C2CCCC2)c1=O
Attribute Measured: IC50
Val: < 10 nM
--
Compound: CCN1CCC(N2CCN3c4ccc(Nc5ncc6c(C)c(C(C)=O)c(=O)n(C7CCCC7)c6n5)cc4OC[C@@H]3C2)CC1
Attribute Measured: IC50
Val: < 10 nM
--
Compound: CC(=O)c1c(C)c2cnc(Nc3ccc4c(c3)OC[C@@H]3CN(C5CCNCC5)CCN43)nc2n(C2CCCC2)c1=O
Attribute Measured: IC50
Val: < 10 nM
--
Compound: CC(=O)c1c(C)c2cnc(Nc3ccc4c(c3)OC[C@@H]3CN(C5CN(S(C)(=O)=O)C5)CCN43)nc2n(C2CCCC2)c1=O [Compound 14S]
Attribute Measured: IC50
Val: < 20 nM
--
Compound: CC(=O)c1c(C)c2cnc(Nc3cc(F)c4c(c3)OC[C@@H]3CN(C5CCN(C)CC5)CCN43)nc2n(C2CCCC2)c1=O
Attribute Measured: IC50
Val: < 50 nM
--
Compound: CC(=O)c1c(C)c2cnc(Nc3ccc4c(c3)OC[C@H]3CN(C5CCOCC5)CCN43)nc2n(C2CCCC2)c1=O
Attribute Measured: IC50
Val: < 20 nM

---

Biological target: CDK6/cycD3 (Homo sapiens)
Assay: CDK6 kinase activity inhibition assay (caliper mobility shift)
Settings: CDK6/cycD3 15 nM, ATP 800 μM; read-out: CDK6 kinase inhibitory activity (IC50)
Method: 1) CDK2, CDK4 and CDK6 Kinase Activity Inhibition Assay In vitro enzymatic activity of the CDK isoforms CDK2/CycA2, CDK4/CycD3 and CDK6/cycD3 were measured using caliper mobility shift assay. […] Collect conversion data on Caliper EZ Reader II (Caliper Life Sciences). […]
Attribute Measured: IC50

Molecule: CC(=O)c1c(C)c2cnc(Nc3ccc4c(c3)OC[C@@H]3CN(C5CCN(C)CC5)CCN43)nc2n(C2CCCC2)c1=O [Compound 2S]
Attribute Measured: IC50
Val: < 10 nM

Molecule: CC(=O)c1c(C)c2cnc(Nc3ccc4c(c3)OC[C@@H]3CN(C5COC5)CCN43)nc2n(C2CCCC2)c1=O [Compound 13S]
Attribute Measured: IC50
Val: < 20 nM

Molecule: CC(=O)c1c(C)c2cnc(Nc3ccc4c(c3)OC[C@@H]3CN(C5CN(C)C5)CCN43)nc2n(C2CCCC2)c1=O [Compound 7S]
Attribute Measured: IC50
Val: < 10 nM

Molecule: CC(=O)c1c(C)c2cnc(Nc3ccc4c(c3)OC[C@@H]3CN(C5CN(C6CC6)C5)CCN43)nc2n(C2CCCC2)c1=O [Compound 12S]
Attribute Measured: IC50
Val: < 10 nM

---

Target: CDK2/CycA2 (Homo sapiens)
Test: CDK2 kinase activity inhibition assay (caliper mobility shift)
Conditions: CDK2/CycA2 12 nM, ATP 39 μM; read-out: CDK2 kinase inhibitory activity (IC50)
Listed next: entries and their corresponding IC50.

Compound: CC(=O)c1c(C)c2cnc(Nc3ccc4c(c3)OC[C@@H]3CN(C5CN(C6CC6)C5)CCN43)nc2n(C2CCCC2)c1=O [Compound 12S]
Measurement Target: CDK2/CycA2 (Homo sapiens)
IC50: < 100 nM
//
Compound: CC(=O)c1c(C)c2cnc(Nc3ccc4c(c3)OC[C@@H]3CN(C5CCN(CC#N)CC5)CCN43)nc2n(C2CCCC2)c1=O [Compound 17S]
Measurement Target: CDK2/CycA2 (Homo sapiens)
IC50: < 100 nM
//
Compound: CC(=O)c1c(C)c2cnc(Nc3ccc4c(c3)OC[C@@H]3CN(C5CCN(C6CC6)CC5)CCN43)nc2n(C2CCCC2)c1=O [Compound 6S]
Measurement Target: CDK2/CycA2 (Homo sapiens)
IC50: < 100 nM
//
Compound: CC(=O)c1c(C)c2cnc(Nc3ccc4c(c3)OC[C@H]3CN(C5CCNCC5)CCN43)nc2n(C2CCCC2)c1=O [Compound 3R]
Measurement Target: CDK2/CycA2 (Homo sapiens)
IC50: < 100 nM
//
Compound: CC(=O)c1c(C)c2cnc(Nc3ccc4c(c3)N3CCN(C5CCNCC5)C[C@H]3CO4)nc2n(C2CCCC2)c1=O [Compound 20S]
Measurement Target: CDK2/CycA2 (Homo sapiens)
IC50: < 500 nM
//
Compound: CC(=O)c1c(C)c2cnc(Nc3cc(F)c4c(c3)OC[C@@H]3CN(C5CCN(C)CC5)CCN43)nc2n(C2CCCC2)c1=O [Compound 9S]
Measurement Target: CDK2/CycA2 (Homo sapiens)
IC50: < 500 nM

---

Experiment: in vivo
Conditions: male, SD, rat, po, 3 mg/kg
Attribute Measured: Cmax (ng/mL)

Substance Smiles: CC(=O)c1c(C)c2cnc(Nc3ccc4c(c3)OC[C@@H]3CN(C5CCN(C)CC5)CCN43)nc2n(C2CCCC2)c1=O
Attribute Measured: Cmax
Val: 114

---

Target: CDK5/p35NCK (Homo sapiens)
Sequence (Q00535 whole entry): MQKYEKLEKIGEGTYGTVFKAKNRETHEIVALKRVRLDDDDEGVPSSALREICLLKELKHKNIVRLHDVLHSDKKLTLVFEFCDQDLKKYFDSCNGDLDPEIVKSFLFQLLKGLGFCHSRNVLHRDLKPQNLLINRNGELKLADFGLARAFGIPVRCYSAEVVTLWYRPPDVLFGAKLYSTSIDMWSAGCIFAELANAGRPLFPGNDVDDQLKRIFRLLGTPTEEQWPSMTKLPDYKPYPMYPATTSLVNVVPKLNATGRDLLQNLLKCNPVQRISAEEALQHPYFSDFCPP
Sequence (Q15078 whole entry partner): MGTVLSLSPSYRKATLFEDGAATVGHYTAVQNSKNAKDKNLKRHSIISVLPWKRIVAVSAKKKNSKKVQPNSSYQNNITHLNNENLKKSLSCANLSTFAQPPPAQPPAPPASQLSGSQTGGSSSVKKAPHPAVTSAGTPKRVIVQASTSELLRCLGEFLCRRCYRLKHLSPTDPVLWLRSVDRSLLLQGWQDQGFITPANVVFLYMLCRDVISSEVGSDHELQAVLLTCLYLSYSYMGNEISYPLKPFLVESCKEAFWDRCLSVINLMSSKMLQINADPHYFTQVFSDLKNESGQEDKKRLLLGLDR
Assay: CDK5 kinase activity inhibition assay (ADP-Glo)
Details: read-out: CDK5 kinase inhibitory activity (IC50)
pIC50: −log10 of the molar value.

Compound: CC(=O)c1c(C)c2cnc(Nc3ccc4c(c3)OC[C@@H]3CN(C5CCNCC5)CCN43)nc2n(C2CCCC2)c1=O [Compound 3S]
pIC50: > 7.00

Compound: CC(=O)c1c(C)c2cnc(Nc3ccc4c(c3)OC[C@@H]3CN(C5CCN(C)CC5)CCN43)nc2n(C2CCCC2)c1=O [Compound 2S]
pIC50: > 7.30

Compound: CC(=O)c1c(C)c2cnc(Nc3ccc4c(c3)OC[C@@H]3CN(C5CN(C)C5)CCN43)nc2n(C2CCCC2)c1=O [Compound 7S]
pIC50: > 7.00

Compound: CC(=O)c1c(C)c2cnc(Nc3ccc4c(c3)OC[C@H]3CN(C5CCOCC5)CCN43)nc2n(C2CCCC2)c1=O [Compound 1R]
pIC50: > 7.00

Compound: CC(=O)c1c(C)c2cnc(Nc3ccc4c(c3)OC[C@H]3CN(C5CCN(C(C)=O)CC5)CCN43)nc2n(C2CCCC2)c1=O [Compound 5R]
pIC50: > 6.70

Compound: CCN1CCC(N2CCN3c4ccc(Nc5ncc6c(C)c(C(C)=O)c(=O)n(C7CCCC7)c6n5)cc4OC[C@@H]3C2)CC1 [Compound 4S]
pIC50: > 7.00

---

Molecular target: CDK2/CycA2 (Homo sapiens, UniProt P24941)
Assay: CDK2 kinase activity inhibition assay (caliper mobility shift)
Conditions: CDK2/CycA2 12 nM, ATP 39 μM; read-out: CDK2 kinase inhibitory activity (IC50)
pIC50: −log10 of the molar value.
Listed next: entries and their corresponding pIC50.

Compound: CC(=O)c1c(C)c2cnc(Nc3ccc4c(c3)N3CCN(C5CCN(C)CC5)C[C@H]3CO4)nc2n(C2CCCC2)c1=O [Compound 19S]
Measurement Target: CDK2/CycA2 (Homo sapiens, UniProt P24941)
pIC50: > 6.30
//
Compound: CC(=O)c1c(C)c2cnc(Nc3ccc4c(c3)OC[C@H]3CN(C5CCN(C(C)=O)CC5)CCN43)nc2n(C2CCCC2)c1=O
Measurement Target: CDK2/CycA2 (Homo sapiens, UniProt P24941)
pIC50: > 7.00
//
Compound: CC(=O)c1c(C)c2cnc(Nc3ccc4c(c3)OC[C@@H]3CN(C5CN(S(C)(=O)=O)C5)CCN43)nc2n(C2CCCC2)c1=O [Compound 14S]
Measurement Target: CDK2/CycA2 (Homo sapiens, UniProt P24941)
pIC50: > 7.00
//
Compound: CC(=O)c1c(C)c2cnc(Nc3ccc4c(c3)OC[C@@H]3CN(C5COC5)CCN43)nc2n(C2CCCC2)c1=O [Compound 13S]
Measurement Target: CDK2/CycA2 (Homo sapiens, UniProt P24941)
pIC50: > 7.00
//
Compound: CC(=O)c1c(C)c2cnc(Nc3ccc4c(c3)OC[C@@H]3CN(C5CC(F)(F)C5)CCN43)nc2n(C2CCCC2)c1=O [Compound 15S]
Measurement Target: CDK2/CycA2 (Homo sapiens, UniProt P24941)
pIC50: > 6.00

---

Listed next: entries and their corresponding pIC50.
Molecular target: CDK2/CycA2 (Homo sapiens)
Test: CDK2 kinase activity inhibition assay (caliper mobility shift)
Assay type: biochemical
Details: CDK2/CycA2 12 nM, ATP 39 μM; read-out: CDK2 kinase inhibitory activity (IC50)
pIC50: −log10 of the molar value.

Molecule: CC(=O)c1c(C)c2cnc(Nc3ccc4c(c3)OC[C@@H]3CN(C5CN(C(C)=O)C5)CCN43)nc2n(C2CCCC2)c1=O [Compound 11S]
pIC50: > 7.00
//
Molecule: CC(=O)c1c(C)c2cnc(Nc3ccc4c(c3)OC[C@@H]3CN(C5CN(C)C5)CCN43)nc2n(C2CCCC2)c1=O
pIC50: > 7.00
//
Molecule: CC(=O)c1c(C)c2cnc(Nc3ccc4c(c3)OC[C@H]3CN(C5CCOCC5)CCN43)nc2n(C2CCCC2)c1=O
pIC50: > 7.00
//
Molecule: CC(=O)c1c(C)c2cnc(Nc3ccc4c(c3)OC[C@@H]3CN(C5CCOCC5)CCN43)nc2n(C2CCCC2)c1=O
pIC50: > 7.00
//
Molecule: CC(=O)c1c(C)c2cnc(Nc3cc(C)c4c(c3)OC[C@@H]3CN(C5CCN(C)CC5)CCN43)nc2n(C2CCCC2)c1=O
pIC50: > 6.30
//
Molecule: CCN1CCC(N2CCN3c4ccc(Nc5ncc6c(C)c(C(C)=O)c(=O)n(C7CCCC7)c6n5)cc4OC[C@@H]3C2)CC1
pIC50: > 7.00
//
Molecule: CC(=O)c1c(C)c2cnc(Nc3ccc4c(c3)OC[C@@H]3CN(C5CCN(C)CC5)CCN43)nc2n(C2CCCC2)c1=O
pIC50: > 7.00
//
Molecule: CC(=O)c1c(C)c2cnc(Nc3ccc4c(c3)OC[C@@H]3CN(C5CCC5)CCN43)nc2n(C2CCCC2)c1=O [Compound 18S]
pIC50: > 6.30
